Origin of values: patent US6123943A

For each of the compounds below, state its LD50.
Assay: Acute toxicity test (LD50)
Conditions: mouse, in vivo; intravenous, male mice
Use mg/kg as the unit, but write only the number.

Query: Give recorded LD50. COc1cc2c3cc1Oc1c(OC)c(OC)cc4c1[C@@H](Cc1ccc(O)c(c1)Oc1ccc(cc1)C[C@@H]3N(C)CC2)N(C)CC4 [berbamine]
Result: 18.8

Query: Give recorded LD50. COc1ccc2cc1Oc1ccc(cc1)C[C@H]1c3cc(c(OC)cc3CCN1C)Oc1c(OC)c(OC)cc3c1[C@@H](C2)N(C)CC3 [isotetrandrine]
Result: 32.5

Query: Give recorded LD50. COc1cc2c3cc1Oc1c4c(cc5c1[C@H](Cc1ccc(cc1)Oc1cc(ccc1O)C[C@H]3N(C)CC2)N(C)CC5)OCO4 [cepharanoline]
Result: 34.3

Query: Give recorded LD50. COc1cc2c3c(c1OC)Oc1ccc(cc1)C[C@@H]1c4c(cc(OC)c(OC)c4Oc4ccc(cc4)C[C@H]3N(C)CC2)CCN1C [cycleanine]
Result: 62.5

Query: Give recorded LD50. COc1ccc2cc1Oc1ccc(cc1)C[C@H]1c3c(cc(OC)c(O)c3Oc3cc4c(cc3OC)CCN(C)[C@@H]4C2)CCN1C [homoaromoline]
Result: 42.4

Query: Give recorded LD50. COc1ccc2cc1Oc1ccc(cc1)C[C@H]1c3c(cc4c(c3Oc3cc5c(cc3OC)CCN(C)[C@@H]5C2)OCO4)CCN1C [cepharanthine]
Result: 47

* * *

Assay: Acute toxicity test (LD50)
Settings: mouse, in vivo; oral, male mice
PROPERTY NAME: LD50 (mg/kg)
Use mg/kg as the unit, but write only the number.

Query: Give recorded LD50. COc1ccc2cc1Oc1ccc(cc1)C[C@H]1c3c(cc4c(c3Oc3cc5c(cc3OC)CCN(C)[C@@H]5C2)OCO4)CCN1C [cepharanthine]
Result: 3410
